Source of measurements: patent US20230165252A1

# Tested on: Parastagonospora nodorum
# measurement.protocol: in vitro-Test with Parastagonospora nodorum (microtiter growth inhibition)
# Type: cell-based
# run.parameters: compound alone, 0.04 ppm
I'd be grateful if you could share measured Efficacy % for these entries.
Answers are plain numbers, in %.

Guide cases for Efficacy %, answers given:
{"compound": "Cn1cc(C(=O)Nc2ccc(F)cc2-c2ccc(Cl)c(Cl)c2)c(C(F)F)n1 [(2.002) bixafen]", "measure.name": "Efficacy %", "readout.units": "%", "reading": 3}
{"compound": "CC(O)(Cn1cncn1)c1ccc(Oc2ccc(Cl)cc2)cc1C(F)(F)F (stereo not shown) [(1.055) mefentrifluconazole]", "measure.name": "Efficacy %", "readout.units": "%", "reading": 98}
{"compound": "C[C@@H]1CC(C)(C)c2c(F)ccc(NC(=O)c3cn(C)nc3C(F)F)c21 [(2.028) inpyrfluxam]", "measure.name": "Efficacy %", "readout.units": "%", "reading": 23}

We now examine a further compound.
Query string: Data request, read-out Efficacy %, for N#Cc1c[nH]cc1-c1cccc2c1OC(F)(F)O2 [(13.001) fludioxonil]
Result string: 0

----------
# measurement.protocol: Measurement of Log P values by HPLC on reversed phase columns (EEC directive 79/831 Annex V.A8), methods [a], [b], [c]
# Type: physicochemical
# run.parameters: reversed-phase HPLC column, method [a]: LC-UV, acidic range, 0.1% formic acid in water and acetonitrile as eluent (10% to 95% acetonitrile); Table 3, compounds of formula (1)
Answer each item with its documented chromatographic logP.
Answers are plain numbers.

Example entries begin here.
{"entry.smiles": "C=Cc1c(Cl)nnc(Oc2cccc(C(F)(F)F)c2)c1C(=O)OC", "chromatographic logP": 3.94}
{"entry.smiles": "CCOC(=O)c1cc(Cl)nnc1Oc1cccc(Cl)c1F", "chromatographic logP": 3.6}
{"entry.smiles": "CCOC(=O)c1cc(SC)nnc1Oc1cccc(C(F)(F)F)c1", "chromatographic logP": 3.96}
{"entry.smiles": "COC(=O)c1cc(C)nnc1Oc1cccc(C2CC2)c1F", "chromatographic logP": 2.89}

Respectfully, I request chromatographic logP for each entry included below.
1. COC(=O)c1c(Oc2cccc(C(F)F)c2F)nnc(C)c1C
2. COC(=O)c1c(Oc2cccc(C(F)(F)F)c2)nnc(Cl)c1Cl
3. CCOC(=O)c1cc(C)nnc1Oc1cccc(C2CC2)c1F
4. COC(=O)c1c(Oc2cccc(C(F)(F)F)c2)nnc(Cl)c1OC
5. COC(=O)c1cc(Cl)nnc1Oc1cncc(Br)c1

Result string:
1: 2.64; 2: 3.86; 3: 3.29; 4: 3.52; 5: 2.33

----------
# measurement.protocol: Measurement of Log P values by HPLC on reversed phase columns (EEC directive 79/831 Annex V.A8), methods [a], [b], [c]
# Assay type: physicochemical
# run.parameters: HPLC method [a]
measure.name: LogP

{"compound": "Cc1nnc(Oc2cccc(C(F)F)c2F)c(C(=O)NCC(F)c2ccc(Br)cc2Cl)c1C (racemic) [I-369]", "reading": "3.65^[a]"}
{"compound": "Cc1ccc(C(F)(F)CNC(=O)c2cc(C)nnc2Oc2cccc(C(F)(F)F)c2)c(C)c1 [I-411]", "reading": "4.00^[a]"}
{"compound": "Cc1ccc(CCNC(=O)c2cc(Cl)nnc2Oc2cccc(C(F)(F)F)c2)c(-c2nccn2C)c1 [I-341]", "reading": "1.85^[a]"}
{"compound": "Cc1ccc(C(F)(F)CNC(=O)c2cc(-c3ccncc3)nnc2Oc2cccc(C(F)(F)F)c2)c(C)c1 [I-316]", "reading": "3.65^[a]"}
{"compound": "O=C(NCC(F)(F)c1ccc(Br)cc1Cl)c1cc(C2CC2)nnc1Oc1cccc(C(F)(F)F)c1 [I-312]", "reading": "4.79^[a];"}

For each of the compounds below, state LogP.
1. O=C(NCc1cnc2ccccc2c1)c1cc(Cl)nnc1Oc1cccc(C(F)(F)F)c1 [I-306]
2. O=C(NCC(F)c1ccc(Br)cc1Cl)c1cc(Cl)nnc1Oc1cccc(C2CC2)c1 (racemic) [I-362]
3. COc1ccc(CCNC(=O)c2cc(Cl)nnc2Oc2cccc(C(F)(F)F)c2)cc1OC [I-268]
4. Cc1cc(Br)ccc1C(F)(F)CNC(=O)c1cc(Cl)nnc1Oc1cccc(C(F)(F)F)c1 [I-404]
5. O=C(NCc1cncc2ccccc12)c1cc(Cl)nnc1Oc1cccc(C(F)(F)F)c1 [I-379]
6. C=C(C)c1cc(C(=O)NCC(F)(F)c2ccc(C)cc2C)c(Oc2cccc(C(F)(F)F)c2)nn1 [I-222]
7. Cc1c(Cl)nnc(Oc2cccc(C(F)(F)F)c2)c1C(=O)NCC(F)(F)c1ccc(Cl)cc1Cl [I-338]
8. O=C(NCC(F)(F)c1ccc(Br)cc1Cl)c1cc(Cl)nnc1Oc1cccc(C(F)(F)F)c1F [I-315]

Result string:
1. 2.71^[a]
2. 4.87^[a]
3. 3.26^[a]
4. 4.57^[a]
5. 2.14^[a]
6. 4.87^[a]
7. 4.43^[a]
8. 4.71^[a]

----------
# measurement.protocol: Measurement of Log P values by HPLC on reversed phase columns (EEC directive 79/831 Annex V.A8), methods [a], [b], [c]
# Type: physicochemical
# run.parameters: method [a]
measure.name: LogP

Respectfully, I request LogP for each entry included below.
1. Cc1ccc(C(F)(F)CNC(=O)c2cc(Cc3ccccc3)nnc2Oc2cccc(C(F)(F)F)c2)c(C)c1
2. Cc1ccc(C(F)(F)CNC(=O)c2cc(Cl)nnc2Oc2ccc3[nH]ccc3c2)c(C)c1
3. O=C(NCC(F)c1ccc(Cl)cc1Cl)c1c(Oc2cccc(C3CC3)c2F)nnc(Cl)c1O (racemic)
4. Cc1c(C2CC2)nnc(Oc2cccc(C(F)(F)F)c2)c1C(=O)NCC(F)(F)c1ccc(Cl)cc1Cl
5. O=C(NCCc1ccc2c(c1)CCO2)c1cc(Cl)nnc1Oc1cccc(C(F)(F)F)c1
6. Cc1ccc(C(F)(F)CNC(=O)c2cc(C3CCOC3)nnc2Oc2cccc(C(F)(F)F)c2)c(C)c1 (racemic)
7. Cc1cc(C(=O)NCCc2ccc(C(F)F)cn2)c(Oc2cccc(C(F)(F)F)c2)nn1
8. Cc1ccc(C(F)(F)CNC(=O)c2cc(-c3cn[nH]c3)nnc2Oc2cccc(C(F)(F)F)c2)c(C)c1

Result string:
4.95^[a]
3.78^[a]
5.13^[a]
4.43^[a]
3.65^[a]
3.78^[a]
2.57^[a];
3.65^[a]

I'm hoping you can list LogP for every compound here, please.
1. O=C(NCC(F)(F)Oc1ccc(C(F)(F)F)cc1Cl)c1cc(Cl)nnc1Oc1cccc(C(F)(F)F)c1
2. O=C(NCCc1ccc2c(c1)OCCO2)c1cc(Cl)nnc1Oc1cccc(C(F)(F)F)c1
3. Cc1ccc(C2(CNC(=O)c3cc(Cl)nnc3Oc3cccc(C(F)(F)F)c3)CC2)cc1
4. Cc1ccc(C(F)(F)CNC(=O)c2cc(CCC#N)nnc2Oc2cccc(C(F)(F)F)c2)c(C)c1

Result string:
4.58^[a]
3.53^[a]
4.58^[a]
3.78^[a]

Each of the following entries comes with a recorded value; kindly state LogP for each.
1. O=C(NC1CCCc2ccsc21)c1cc(Cl)nnc1Cl (racemic)
2. C=C(C)OC(=O)N(CC(F)(F)c1ccc(C)cc1C)C(=O)c1cc(Cl)nnc1Oc1cccc(C(F)(F)F)c1
3. CON(CCc1ccc(Cl)cc1Cl)C(=O)c1c(Oc2cccc(C3CC3)c2F)nnc(Cl)c1C
4. O=C(NCc1cccc2cnccc12)c1cc(Cl)nnc1Oc1cccc(C(F)(F)F)c1
5. O=C(NCC(F)c1ccc(Cl)cc1Cl)c1c(Oc2cccc(C3CC3)c2F)nnc(Cl)c1I (racemic)
6. O=C(NCC1CNc2ccccc21)c1cc(Cl)nnc1Oc1cccc(C(F)(F)F)c1 (racemic)
7. O=C(NC1CCCc2sc(Cl)cc21)c1cc(Cl)nnc1Oc1cccc(C(F)(F)F)c1 (racemic)
8. CCc1cccc(Oc2nnc(Cl)cc2C(=O)NCC(F)(F)c2ccc(C)cc2C)c1

Result string:
1: 2.60^[a]; 2: 5.51^[a]; 3: 5.36^[a]; 4: 2.14^[a]; 5: 4.73^[a]; 6: 2.42^[a]; 7: 4.68^[a]; 8: 4.68^[a]

// input: 4 compounds below; output: LogP for each
1. O=C(NCC(F)(F)c1ccc(Cl)cc1Br)c1cc(Cl)nnc1Oc1cccc(C(F)(F)F)c1
2. CCSc1c(Cl)nnc(Oc2cccc(C(F)(F)F)c2)c1C(=O)NCC(F)(F)c1ccc(C)cc1C
3. O=C(NCCc1ccc(-c2ccncc2)cc1)c1cc(Cl)nnc1Oc1cccc(C(F)(F)F)c1
4. Cc1ccc(C(F)(F)CNC(=O)c2cc([S+](C)[O-])nnc2Oc2cccc(C(F)(F)F)c2)c(C)c1 (racemic)

Result string:
["4.68^[a]", "4.87^[a]", "2.13^[a]", "3.65^[a]"]

Would you mind giving LogP for every compound in the list below?
1. Cc1ccc(C(F)(F)CNC(=O)c2c(Oc3cccc(C(F)(F)F)c3)nnc(Cl)c2OCC2CC2(F)F)c(C)c1 (racemic)
2. C=CCOc1c(Cl)nnc(Oc2cccc(C(F)(F)F)c2)c1C(=O)NCC(F)(F)c1ccc(C)cc1C
3. COCCc1c(C2CC2)nnc(Oc2cccc(C(F)(F)F)c2)c1C(=O)NCC(F)(F)c1ccc(C)cc1C

Result string:
1. 4.95^[a]
2. 4.87^[a]
3. 4.57^[a]
